# System: SNB-19 CNS
# protocol: NCI-60 one-dose screen, 48 h (100 = growth as untreated, 0 = no growth, -100 = all killed)
# measurement-context: 10 µM unless noted
Compounds without any hit were thinned out: in the full panel of roughly 83,000, 20% have a hit.
endpoint-label: growth (%)

>>> data_value("NNc1ccc(Cl)cc1Cl")
92.5
>>> data_value("Cc1ccc(N2C(=O)C=CC2=O)cc1")
95.4
>>> data_value("COC(=O)[C@]1(C)CCC[C@]2(C)c3ccc(C(C)C)cc3C(=O)[C@@H](Br)[C@@H]12")
98.3
>>> data_value("COC(=O)Nc1nc2ccc(C3(c4ccc(F)cc4)OCCO3)cc2[nH]1")
89.1
>>> data_value("CN(Cc1ccccc1)c1ccc(SC#N)cc1")
93.3
>>> data_value("Nc1ccc(C(=O)/C=C/c2ccccc2)cc1")
91.3
>>> data_value("CCCCCCCCCCCCCCCC[N+]1(C)CCCC1c1cccnc1 (centres undefined)")
29.1
>>> data_value("O=C(c1ccccc1)c1cc2ccccc2oc1=O")
97.4
>>> data_value("CCCCCC[C@@H](O)C/C=C\\CCCCCCCC(=O)OCCOC")
97.8
>>> data_value("CCCCCCCCCCCCCCCCSC(=NCC)NCC")
55.3
>>> data_value("CC1=CC(=NC(=O)CBr)C=C/C1=N\\S(=O)(=O)c1ccccc1")
98.2
>>> data_value("O=C(/C=C/C(Cl)(Cl)Cl)Nc1ccc(Cl)cc1")
103
>>> data_value("Oc1ccccc1N=Cc1ccccc1")
93.7
>>> data_value("CCC(C)C(N)C(=O)NC(CC(N)=O)C(=O)NC(CC(C)C)C(=O)NC(CCCCN)C(=O)NC(C)C(=O)NC(CC(C)C)C(=O)NC(C)C(=O)NC(C)C(=O)NC(CC(C)C)C(=O)NC(C)C(=O)NC(CCCCN)C(=O)NC(CCCCN)C(=O)NC(C(=O)NC(CC(C)C)C(N)=O)C(C)CC (centres undefined)")
98.1
